# Test system: Saccharomyces cerevisiae;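 note: PSI is a weighted mean of sequencing reads over stability bins, variants kept only with over 10 reads, mCherry proximal and sfGFP distal, peptide attached via GGGS linker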
# experiment: protein stability index of tFT-peptide fusion (C-terminal peptide) (PSI (0-1 scale)); higher = more stable (slower turnover)
# protocol_conditions: genetic background: wild type; temperature: 30 C
Exercise: for every item that follows, state its recorded protein stability index.
Numbers only.

# example entries with known answers
[[record]]
residue_sequence = "AFPSSVILMVFS"
reported = 0.287

[[record]]
residue_sequence = "FFAIFSLLLSFT"
reported = 0.4

[[record]]
residue_sequence = "GLFVGCWVFLVL"
reported = 0.297

[[record]]
residue_sequence = "LVCLPVGFFLMW"
reported = 0.411

[[record]]
residue_sequence = "VIYNSALLLVRL"
reported = 0.25

[[record]]
residue_sequence = "LFTRSIRNLKSL"
reported = 0.291

[[record]]
residue_sequence = "YFWWLWMSFWVG"
reported = 0.403

[[record]]
residue_sequence = "LSGDIPWSFVPV"
reported = 0.677


Please report protein stability index for every entry that follows.
1. GGHGGRRRKGVG
2. LPPSTFLLHFLL
3. SKSRKTGWMLIS
4. FSLLFVRFCFFL
5. VCPWGYCSEWGF
6. LRSPCALVLLLI

**Result**
1: 0.381; 2: 0.232; 3: 0.164; 4: 0.248; 5: 0.687; 6: 0.237

// batch mode: one protein stability index value per listed entry
1. QIDYSVYIFALG
2. LHRLRFTLVQVS
3. DVHPLFYCIPVY

**Result**
0.302
0.163
0.101

Batch lookup, protein stability index per entry.
1. RLCKGQKYTKIN
2. IGSARIKLLCYH

**Result**
0.105
0.165
